test summary: Toxicity liver stage against HepG2, at 10uM
Format: cell-based
Design: test concentration 10 uM, cell line HepG2-A16-CD81EGFP
particulars: human, HepG2-A16-CD81EGFP cells; read-out: INHIBITION
measured metric: cytotoxicity at 10 µM (%)

compound	assay result
Cc1csc2c(C3CCN(CCCOc4ccccc4)CC3)nc(C)n12	1.63
Cc1ccc(CNC(=O)N2CCN(S(C)(=O)=O)CC2)n1C	2.22
Cn1nnc2c1C(COCc1cccnc1)CN(Cc1ccoc1)C2 (stereo not drawn)	-2.55
O=C1NC(c2ccccc2)=N[C@@]12CC[C@@H]1CN(Cc3cccnc3)C[C@@H]12	6.8
CN1CCN(S(=O)(=O)c2ccc(C(=O)N3CC[C@@H](O)C3)cc2)CC1=O	2.7
COC(=O)c1sc(C(NC(=O)c2ccccc2)C2CC2)nc1C (stereo not drawn)	0.0726
COCC1N(C(=O)Nc2ccccc2)C2CCC1(O)CC2 (stereo not drawn)	3.15
Cc1nc(Nc2cnccn2)cc(C2CCN(CCO)C2)n1 (stereo not drawn)	0.636
CC(C)c1nn(CC(=O)N2CCCCC2)c(=O)c2c1cnn2C(C)(C)C	-13.2
Cc1nc2n(n1)CC(NCc1ccnc(-c3ccccc3)n1)CC2 (stereo not drawn)	-0.898
OCC1CCCN1c1cc(NCCc2c[nH]c3ccccc23)ncn1 (stereo not drawn)	-7.06
CC(=O)Nc1nc(C2CCCN(C(=O)CN(C)C)C2)cs1 (stereo not drawn)	-43.4
O=C1CC2(CCN(C(=O)c3csc(-c4ccccc4)n3)C2)C(=O)N1 (stereo not drawn)	-1.25
Clc1ccc2cccnc2c1CN1CCCC(Cn2cncn2)C1 (stereo not drawn)	8.38
O=C(CCCOc1cccc(F)c1)N1CCCC(n2cccn2)C1 (stereo not drawn)	-16
COc1ccc2c(c1)NC(C1CCN(C(=O)C3CC3)CC1)NS2(=O)=O (stereo not drawn)	0.0454
Cc1cccc(C(=O)N2CCCCC2c2nc(C)cs2)n1 (stereo not drawn)	-7.26
CC(=O)N1CCC2(CC1)C(=O)N(C)c1ccc(F)cc12	-116
Cc1ccc(NCc2ccc(C#N)cc2)cc1-n1cnnn1	-0.657
CC(=O)N1CCCN(Cc2nnc(C(C)(C)C)o2)CC1	-4.13
COCC(=O)NCc1cc(=O)n2c(n1)CN(Cc1ccco1)CCC2	-89.3
CCn1c(C)nnc1CN(C)C1CCN(CCOc2ccccc2)C1 (stereo not drawn)	0.796
Cc1oncc1C(=O)N[C@@H]1CN(c2ncccn2)C[C@@H]2CCCO[C@@H]21	6.21

---

test summary: Toxicity liver stage against HepG2, at 10uM
Type: cell-based
Design: test concentration 10 uM, cell line HepG2-A16-CD81EGFP
particulars: human, HepG2-A16-CD81EGFP cells; read-out: INHIBITION
# cytotoxicity at 10 µM per record follows

compound	unit tag	cytotoxicity at 10 µM
COc1ccc2nc(C3CC3)cc(C(=O)NCc3noc(C)n3)c2c1	%	11.8
CCc1ccc(CC)c(NCC(=O)N2CCCC(NC(C)=O)C2)c1 (centres undefined)	%	-5.87
CCc1ccc(C(=O)N2C[C@@H]3COC[C@@H](C(=O)NC)[C@@H]3C2)cc1	%	1.58
Cc1ccc(CN2C[C@H]3C(=O)N(CC4CC4)C[C@@]3(C(=O)O)C2)c(F)c1F	%	7.47
CCCN(Cc1nc2ccccc2[nH]1)Cc1ccccc1OC	%	-39.6
CN(c1ccc(CNC(=O)c2ccc(O)nc2)cc1)C1CCCCC1	%	-0.77
CC(C)N1CCn2c(nc3cc(C(N)=O)ccc32)C1	%	-11.3
COc1ccc(C(C)NCc2cnnn2C)cc1F (centres undefined)	%	-9.72
Cn1ncc2c(=O)[nH]c(CN3CCCC3c3cccc(F)c3)nc21 (centres undefined)	%	-9.14
Cc1ccccc1-c1cncc(C2CCN(C)CC2)n1	%	-6.13
Cc1c[nH]nc1C1CN(c2cnccn2)CCO1 (centres undefined)	%	4.34
Cc1nc(N)cc(N2CCCC(COc3cccc(F)c3)C2)n1 (centres undefined)	%	-1.53
COc1ccc(C2CCCN2C(=O)NCCNc2ncccn2)cc1 (centres undefined)	%	-8.18
O=C1CCN(C(=O)CCc2ccc(Cl)cc2Cl)CCN1	%	1.88
CN1CCN(C(=O)c2ncn3c2CNS(=O)(=O)c2ccccc2-3)CC1	%	4.5
CCN(CC1CCCO1)C(=O)Nc1cc(C(N)=O)ccc1OC (centres undefined)	%	-7.33
CC(C)CC(CCO)CNC(=O)N1CCC1(C)C (centres undefined)	%	-3.25
CC(C)(C)CN1CCCC(O)(CN2CCc3[nH]ncc3C2)C1=O (centres undefined)	%	-5.14
NC(=O)N1CCCN(C2CCCCc3ccccc32)CC1 (centres undefined)	%	-43.9
CCC[C@@H]1CN(C(=O)c2ccccc2-c2ncc[nH]2)C[C@H]1N(C)C	%	-3.17
CC(C)CS(=O)(=O)N1CCC2(CN(c3ccsc3)C(=O)CN2C)C1 (centres undefined)	%	6.88
Cc1cc(C)n(C2CCCN(C(=O)c3c(C)c(C)n[nH]c3=O)C2)n1 (centres undefined)	%	3.18
N#Cc1ccc(CN(CCF)Cc2cccc(F)c2)cc1	%	-4.11
Cc1cc(CN(C)CCN(C)c2ccccc2)no1	%	-4.65
